Test system: T. gondii RH strain (RH-Tub-eYFP) tachyzoites
assay.protocol: microbe, parasite or virus in culture
Type: cell-based, Toxoplasma gondii
assay.setup: library screen at 2 μg/mL, 72 h, % growth, replicate 2
In this section we review reported Tg_72h_%Growth_Rep2 values for a set of compounds.
Answer in %, number only, no unit symbol.

// solved cases for Tg_72h_%Growth_Rep2 follow
>>> quantitative_result("CC[C@H]1OC(=O)[C@H](C)[C@@H](O[C@H]2C[C@@](C)(OC)[C@@H](O)[C@H](C)O2)[C@H](C)[C@@H](O[C@@H]2O[C@H](C)C[C@H](N(C)C)[C@H]2O)[C@](C)(O)C[C@@H](C)C(=O)[C@H](C)[C@@H](O)[C@H]1C")
48.82
>>> quantitative_result("C=C1CC[C@H]2C(C)(C)CCC[C@]2(C)[C@H]1C[C@@]12C[C@H]3C(=O)N4CCC=C4C(=O)N3[C@@H]1Nc1ccccc12")
84.36
>>> quantitative_result("C/C=C(\\C)[C@H](O)[C@H](C)/C=C(C)/C=C/C/C(C)=C/Cc1oc(OC)c(C)c(=O)c1C")
90.86

[in] # get_value(readout= Tg_72h_%Growth_Rep2, system= T. gondii RH strain (RH-Tub-eYFP) tachyzoites) for CO/C1=C\C(C)=C\C(C)C(O)C(C)C/C(C)=C/C=C/C(OC)C(C(C)C(O)C(C)C2(O)CC(OC(=O)/C=C/C(=O)O)C(C)C(C(C)C)O2)OC1=O (centres unmarked)
[out] -0.13

[in] Try this compound too: CC(=O)NCCc1cnc[nH]1
[out] 105.85

====

In this section we review reported Pf_72h_%Growth_Rep1 values for a set of molecules.
System: P. falciparum 3D7 parasites
assay.protocol: P. falciparum growth inhibition assay, 1-cycle (72 h treatment), SYBR DNA staining (library screen at 2 μg/mL and dose-response)
Assay type: cell-based, Plasmodium falciparum
assay.setup: P. falciparum 3D7, 72 h, library screen at 2 μg/mL, % growth, replicate 1
Answer in %, number only, no unit symbol.

// solved cases for Pf_72h_%Growth_Rep1 follow
>>> quantitative_result("CCCC1CC(C(=O)NC(C(C)O)C2OC(SC)C(O)C(O)C2O)N(C)C1 (centres unmarked) [BIA-L1457]")
49.27
>>> quantitative_result("CCCC(=O)OC1C(C)OC(OC2C(C)OC(OC3C(CC=O)CC(C)C(O)C=CC=CCC(C)OC(=O)CC(OC(C)=O)C3OC)C(O)C2N(C)C)CC1(C)O (centres unmarked) [BIA-L1364]")
50.48
>>> quantitative_result("CC1OC(=O)C2CC3CCCCC3C(C=CC3CCCC(C)N3C)C12 (centres unmarked) [BIA-H1744]")
66.16
>>> quantitative_result("C=C(C)[C@@H]1CC[C@]2(C)CC[C@]3(C)[C@H](CC[C@@H]4[C@@]5(C)CC[C@H](O)C(C)(C)[C@@H]5CC[C@]43C)[C@@H]12 [BIA-L1759]")
81.82
>>> quantitative_result("CCCC(O)C(O)C1CC(OC)=CC(=O)O1 (centres unmarked) [BIA-H1068]")
88.88
>>> quantitative_result("CCC(C)C1OC2(CCC1C)CC1CC(CC=C(C)C(O)C(C)C=CC=C3COC4C(O)C(C)=CC(C(=O)O1)C34O)O2 (centres unmarked) [BIA-I1151]")
82.86

[in] Find the recorded Pf_72h_%Growth_Rep1 belonging to O=C1C=CC(=O)c2c(O)cccc21 [BIA-J1739] and report it.
[out] 80.59

[in] Try this molecule too: CCOC(=O)c1c2ccocc-2oc1=O [BIA-K1981]
[out] 72.42

====

Test system: T. gondii RH strain (RH-Tub-eYFP) tachyzoites
assay.protocol: microbe, parasite or virus in culture
Type: cell-based, Toxoplasma gondii
assay.setup: Toxoplasma gondii, 72 h, T. gondii, 72 h, screen at 2 μg/mL, replicate 1; read-out: Tg_72h_%Growth_Rep1
In this section we review reported percent parasite growth at 2 µg/mL values for a set of compounds.
Answer in %, number only, no unit symbol.

>>> quantitative_result("CCC[C@H]1CC2=C(C[C@@H](CC)CC3=C1C(=O)OC3=O)C(=O)OC2=O")
92.1

[in] # get_value(readout= percent parasite growth at 2 µg/mL, system= T. gondii RH strain (RH-Tub-eYFP) tachyzoites) for C=C(CC[C@]12O[C@H](C(=O)O)[C@@](O)(C(=O)O)[C@](C(=O)O)(O1)[C@H](OC(=O)/C=C/[C@@H](C)C[C@@H](C)CC)[C@H]2O)[C@@H](OC(C)=O)[C@H](C)Cc1ccccc1
[out] 122

[in] Try this compound too: C/C=C/C1=CC(=O)[C@@H](O)[C@@H]1O
[out] 125

[in] Try this compound too: COc1cc(-c2cc3c(c(=O)o2)C[C@]2(O)[C@@]4(C)C(=O)C=CC(C)(C)[C@]4(O)CC[C@@]2(C)O3)cc2c1OCO2
[out] 104

[in] Try this compound too: CCCCCCCCCCCCCCCC(=O)OC[C@@H](NC(=O)C(Cl)Cl)[C@H](O)c1ccc([N+](=O)[O-])cc1 [Chloramphenicol palmitate]
[out] 153

[in] Try this compound too: COc1cc(-c2cc3c(c(=O)o2)C[C@]2(O)[C@@]4(C)C(=O)C=CC(C)(C)[C@]4(O)CC[C@@]2(C)O3)cc(OC)c1OC
[out] 89.7

[in] Try this compound too: C=CC(C)(C)[C@@]12C[C@H]3C(=O)N[C@H](CC(C)C)C(=O)N3[C@H]1N(C(C)=O)c1ccccc12
[out] 90.9

[in] Try this compound too: Cc1nnc2n1-c1sc(CCC(=O)N3CCOCC3)cc1C(c1ccccc1Cl)=NC2
[out] 91.8

[in] Try this compound too: CNc1ccc2oc(C[C@H]3O[C@@]4(CC[C@H]3C)O[C@H]([C@H](C)C(=O)c3ccc[nH]3)[C@H](C)C[C@H]4C)nc2c1C(=O)O
[out] 1.82

[in] Try this compound too: CC1=C(O)C(=O)[C@@H]2O[C@@H]2C1=O
[out] 132

[in] Try this compound too: COc1cc(-c2ccc(O)cc2)c(OC)c(O)c1-c1ccc(O)cc1
[out] 84.9

[in] Try this compound too: C/C1=C\[C@@H](C)C/C=C/[C@H]2[C@@H]3O[C@]3(C)[C@@H](C)[C@H]3[C@H](Cc4c[nH]c5ccccc45)NC(=O)[C@]32C(=O)/C=C/C(=O)[C@@H]1O
[out] 51.1

[in] Try this compound too: CC[C@H]1OC(=O)[C@H](C)[C@@H](O[C@H]2C[C@@](C)(OC)[C@@H](O)[C@H](C)O2)[C@H](C)[C@@H](O[C@@H]2O[C@H](C)C[C@H](N(C)C)[C@H]2O)[C@](C)(OC)C[C@@H](C)C(=O)[C@H](C)[C@@H](O)[C@]1(C)O
[out] 40.9

====

Test system: T. gondii RH strain (RH-Tub-eYFP) tachyzoites
assay.protocol: microbe, parasite or virus in culture
Format: cell-based, Toxoplasma gondii
assay.setup: T. gondii RH, 72 h, library screen at 2 μg/mL, % growth, replicate 2
So basically: Tg_72h_%Growth_Rep2 at 90% or higher? That is true (1). Lower than 90%? That is false (0).

Check out these entries, answers already filled in.
>>> discrete_label("COC1C=CC=C(C)C(=O)NC2=CC(=O)C=C(C2=O)C(OC)C(C)CC(OC)C(OC)C(C)C=C(C)C1OC(N)=O (stereo not drawn)")
"false (0)"
>>> discrete_label("COC1=CC(=O)C[C@@H](C)[C@]12Oc1c(Cl)c(OC)cc(OC)c1C2=O")
"true (1)"
>>> discrete_label("CCOC(=O)c1c2ccocc-2oc1=O")
"true (1)"

Consider the record given below.
[in] Hi, just wondering whether CN1CCC2(c3cccc4c3NC3N(C)CCC43C34CCN(C)C3Nc3ccccc34)c3ccccc3NC12 (stereo not drawn) shows Tg_72h_%Growth_Rep2 of 90% or higher.
[out] false (0)

====

Test system: T. gondii RH strain (RH-Tub-eYFP) tachyzoites
assay.protocol: microbe, parasite or virus in culture
Type: cell-based, Toxoplasma gondii
assay.setup: Toxoplasma gondii; RH strain, 72 h, mean ± S.D., n ≥ 3; read-out: IC50 (μM), T. gondii (converted)
In this section we review reported IC50 values for a set of compounds.
Answer in µM, number only, no unit symbol.

[in] # get_value(readout= IC50, system= T. gondii RH strain (RH-Tub-eYFP) tachyzoites) for C=C[C@]1(C)C[C@@H](OC(=O)CSC(C)(C)CNC(=O)[C@H](N)C(C)C)[C@]2(C)[C@H](C)CC[C@]3(CCC(=O)[C@H]32)[C@@H](C)[C@@H]1O [Valnemulin, reference compound]
[out] 0.232

[in] Try this compound too: C=C[C@]1(C)C[C@@H](OC(=O)CS[C@@H]2C[C@H]3CC[C@@H](C2)N3C)[C@]2(C)[C@H](C)CC[C@]3(CCC(=O)[C@H]32)[C@@H](C)[C@@H]1O [Retapamulin, reference compound]
[out] 0.085
